# MEASUREMENT PROTOCOL: Displacement of C18-Aib-lucifer yellow from HIV1 envelope glycoprotein gp41 Fe(env2.0)3 by fluorescence assay
# Design: species or system Human immunodeficiency virus 1
pKi: −log10 of the molar value.
The entries below are paired with their reported pKi.
MEASURE: pKi

STRUCTURE NOTATION	MEASURE	RELATION OPERATOR	MEASURED NUMBER
NC(=O)C[C@H](N)C(=O)Nc1ccc(C(=O)N[C@@H](Cc2c[nH]c3ccccc23)C(=O)O)cc1OCCc1c[nH]c2ccccc12	pKi	=	6.10
N[C@@H](CC(=O)O)C(=O)Nc1ccc(C(=O)N[C@@H](CCc2ccccc2)C(=O)O)cc1OCc1ccc2ccccc2c1	pKi	>	5.00
COc1ccc(C[C@H](N)C(=O)Nc2ccc(C(=O)N[C@H](CC(=O)O)Cc3c[nH]c4ccccc34)cc2OCCc2c[nH]c3ccccc23)cc1	pKi	=	4.30
N[C@@H](Cc1ccccc1)C(=O)Nc1ccc(C(=O)N[C@@H](Cc2c[nH]c3ccccc23)C(=O)O)cc1OCCc1c[nH]c2ccccc12	pKi	>	5.00
